Measured on: UniProt P02766
Method notes: Fluorescence polarization (FP) binding assay, ligands to TTR in buffer
Measurement setup: log [nM] inhibitor 1.592
Reported endpoint: % Fluorescence polarization (mean)

Here's what some known entries look like.
C=CCN1CC[C@]23c4c5ccc(O)c4O[C@H]2[C@@H](OCc2cn(CCNCCCCCCOc4cc(OCCCc6c(C)n[nH]c6C)cc(C(=O)O)c4)nn2)CC[C@@]3(O)[C@H]1C5 [AG10-L2-Nal] = 105.531%
COc1ccc2c3c1O[C@H]1[C@@H](OCc4cn(CCNCCCCCCOc5cc(OCCCc6c(C)n[nH]c6C)cc(C(=O)O)c5)nn4)CC[C@@]4(O)[C@@H](C2)N(C)CC[C@]314 [AG10-L2-Oxy] = 102.360%
Cc1n[nH]c(C)c1CCCOc1cc(OCCCCCCN)cc(C(=O)O)c1 [Compound 1] = 101.890%

Proceed to the following item.
(Q) Which % Fluorescence polarization (mean) reading was recorded for the compound C=CCN1CC[C@]23c4c5ccc(O)c4O[C@H]2[C@@H](OCc2cn(CCOCCOCCNCCCCCCOc4cc(OCCCc6c(C)n[nH]c6C)cc(C(=O)O)c4)nn2)CC[C@@]3(O)[C@H]1C5 [AG10-L1-Nal] ?
(A) 105.820%

----------
Method notes: in vivo
Measurement setup: male, Sprague Dawley, rat, sc, 15.9 μmole/kg, Concentration, subcutaneous 15.9 μmole/kg, time 8 h, individual animals
Reported endpoint: concentration at 8 h (nM)
API: value field is a number in nM; no unit string.

(Q) Which concentration at 8 h reading was recorded for the molecule `COc1ccc2c3c1O[C@H]1[C@@H](OCc4cn(CCNCCCCCCOc5cc(OCCCc6c(C)n[nH]c6C)cc(C(=O)O)c5)nn4)CC[C@@]4(O)[C@@H](C2)N(C)CC[C@]314` ?
(A) 196

----------
Method notes: in vivo
Measurement setup: male, Sprague Dawley, rat, sc, 15.9 μmole/kg, Concentration, subcutaneous 15.9 μmole/kg, time 0.5 h, individual animals
Reported endpoint: concentration at 0.5 h (µM)
API: value field is a number in µM; no unit string.

(Q) Which concentration at 0.5 h reading was recorded for the compound COc1ccc2c3c1O[C@H]1[C@@H](OCc4cn(CCNCCCCCCOc5cc(OCCCc6c(C)n[nH]c6C)cc(C(=O)O)c5)nn4)CC[C@@]4(O)[C@@H](C2)N(C)CC[C@]314 [AG10-L2-Oxy] ?
(A) 4.74

----------
Method notes: in vivo
Measurement setup: male, Sprague Dawley, rat, sc, 16 µmol/kg, plasma concentration, SC 16 µmol/kg, 6 h, individual animals
Reported endpoint: concentration at 6 h (µM)
API: value field is a number in µM; no unit string.

(Q) Which concentration at 6 h reading was recorded for the compound `C=CCN1CC[C@]23c4c5ccc(O)c4O[C@H]2[C@@H](OCc2cn(CCNCCCCCCOc4cc(OCCCc6c(C)n[nH]c6C)cc(C(=O)O)c4)nn2)CC[C@@]3(O)[C@H]1C5` ?
(A) 1.05

----------
Measured Vd/F values are reported for all entries that follow.
Method notes: in vivo
Measurement setup: male, Sprague Dawley, rat, sc, 16 umol/kg
API: value field is a number in L/kg; no unit string.

Here's what some known entries look like.
C=CCN1CC[C@]23c4c5ccc(O)c4O[C@H]2[C@@H](OCc2cn(CCNCCCCCCOc4cc(OCCCc6c(C)n[nH]c6C)cc(C(=O)O)c4)nn2)CC[C@@]3(O)[C@H]1C5 [AG10-L2-Nal] = 4.89
C=CCN1CC[C@]23c4c5ccc(O)c4O[C@H]2[C@@H](OCCOCCOCCOCCOCCOCCOCCOC)CC[C@@]3(O)[C@H]1C5 [Naloxegol, reference compound] = 5.58
C=CCN1CC[C@]23c4c5ccc(O)c4O[C@H]2C(=O)CC[C@@]3(O)[C@H]1C5 [Naloxone, reference compound] = 8.94

Proceed to the following item.
(Q) Which Vd/F reading was recorded for the compound COc1ccc2c3c1O[C@H]1[C@@H](OCc4cn(CCNCCCCCCOc5cc(OCCCc6c(C)n[nH]c6C)cc(C(=O)O)c5)nn4)CC[C@@]4(O)[C@@H](C2)N(C)CC[C@]314 [AG10-L2-Oxy] ?
(A) 4.22

----------
Measured on: purified human TTR (Homo sapiens)
Method notes: Fluorescence polarization (FP) binding assay, ligands to TTR in buffer
Measurement setup: log [nM] inhibitor 2.495
Measured % Fluorescence polarization (mean) values are reported for all entries that follow.
API: value field is a number in %; no unit string.

Here's what some known entries look like.
COc1ccc2c3c1O[C@H]1[C@@H](OCc4cn(CCNCCCCCCOc5cc(OCCCc6c(C)n[nH]c6C)cc(C(=O)O)c5)nn4)CC[C@@]4(O)[C@@H](C2)N(C)CC[C@]314 = 94.250
C=CCN1CC[C@]23c4c5ccc(O)c4O[C@H]2[C@@H](OCc2cn(CCOCCOCCNCCCCCCOc4cc(OCCCc6c(C)n[nH]c6C)cc(C(=O)O)c4)nn2)CC[C@@]3(O)[C@H]1C5 = 87.150
Cc1n[nH]c(C)c1CCCOc1cc(OCCCCCCN)cc(C(=O)O)c1 = 50.610

(Q) Which % Fluorescence polarization (mean) reading was recorded for the molecule `C=CCN1CC[C@]23c4c5ccc(O)c4O[C@H]2[C@@H](OCc2cn(CCNCCCCCCOc4cc(OCCCc6c(C)n[nH]c6C)cc(C(=O)O)c4)nn2)CC[C@@]3(O)[C@H]1C5` ?
(A) 90.708

----------
Method notes: in vivo
Measurement setup: male, Sprague Dawley, rat, iv, 4.84 µmol/kg, plasma concentration, IV 4.84 µmol/kg, 0.03 h, individual animals
Reported endpoint: concentration at 0.03 h (µM)
API: value field is a number in µM; no unit string.

C=CCN1CC[C@]23c4c5ccc(O)c4O[C@H]2[C@@H](OCc2cn(CCNCCCCCCOc4cc(OCCCc6c(C)n[nH]c6C)cc(C(=O)O)c4)nn2)CC[C@@]3(O)[C@H]1C5 [AG10-L2-Nal] = 48.8

(Q) Which concentration at 0.03 h reading was recorded for the compound C=CCN1CC[C@]23c4c5ccc(O)c4O[C@H]2[C@@H](OCCOCCOCCOCCOCCOCCOCCOC)CC[C@@]3(O)[C@H]1C5 [Naloxegol, reference compound] ?
(A) 1.9

----------
Method notes: in vivo
Measurement setup: male, Sprague Dawley, rat, sc, 16 µmol/kg, plasma concentration, SC 16 µmol/kg, 1 h, individual animals
Measured concentration at 1 h values are reported for all entries that follow.
API: value field is a number in µM; no unit string.

C=CCN1CC[C@]23c4c5ccc(O)c4O[C@H]2[C@@H](OCCOCCOCCOCCOCCOCCOCCOC)CC[C@@]3(O)[C@H]1C5 [Naloxegol, reference compound] = 1.97

Proceed to the following item.
(Q) Which concentration at 1 h reading was recorded for the compound C=CCN1CC[C@]23c4c5ccc(O)c4O[C@H]2[C@@H](OCc2cn(CCNCCCCCCOc4cc(OCCCc6c(C)n[nH]c6C)cc(C(=O)O)c4)nn2)CC[C@@]3(O)[C@H]1C5 [AG10-L2-Nal] ?
(A) 4.24

----------
Method notes: in vivo
Measurement setup: male, Sprague Dawley, rat, iv, 4.84 µmol/kg, plasma concentration, IV 4.84 µmol/kg, 1 h, individual animals
Reported endpoint: concentration at 1 h (nM)
API: value field is a number in nM; no unit string.

(Q) Which concentration at 1 h reading was recorded for the molecule C=CCN1CC[C@]23c4c5ccc(O)c4O[C@H]2[C@@H](OCc2cn(CCNCCCCCCOc4cc(OCCCc6c(C)n[nH]c6C)cc(C(=O)O)c4)nn2)CC[C@@]3(O)[C@H]1C5 [AG10-L2-Nal] ?
(A) 295

----------
Method notes: in vivo
Measurement setup: male, Sprague Dawley, rat, iv, 4.84 µmol/kg, plasma concentration, IV 4.84 µmol/kg, 2 h, individual animals
Measured concentration at 2 h values are reported for all entries that follow.
API: value field is a number in nM; no unit string.

C=CCN1CC[C@]23c4c5ccc(O)c4O[C@H]2[C@@H](OCc2cn(CCNCCCCCCOc4cc(OCCCc6c(C)n[nH]c6C)cc(C(=O)O)c4)nn2)CC[C@@]3(O)[C@H]1C5 [AG10-L2-Nal] = 234

Proceed to the following item.
(Q) Which concentration at 2 h reading was recorded for the compound C=CCN1CC[C@]23c4c5ccc(O)c4O[C@H]2[C@@H](OCCOCCOCCOCCOCCOCCOCCOC)CC[C@@]3(O)[C@H]1C5 [Naloxegol, reference compound] ?
(A) 17.8

----------
Method notes: in vivo
Measurement setup: male, Sprague Dawley, rat, sc, 16 µmol/kg, plasma concentration, SC 16 µmol/kg, 8 h, individual animals
Reported endpoint: concentration at 8 h

(Q) Which concentration at 8 h reading was recorded for the molecule `C=CCN1CC[C@]23c4c5ccc(O)c4O[C@H]2[C@@H](OCc2cn(CCNCCCCCCOc4cc(OCCCc6c(C)n[nH]c6C)cc(C(=O)O)c4)nn2)CC[C@@]3(O)[C@H]1C5` ?
(A) 727 nM
